Values from paper PMC5034689

Experiment: Hepatic microsomal stability, human
Type: in vitro ADME
Details: liver microsomes, pH 7.4

compound_structure: O=[N+]([O-])c1ccc(CNc2nc(NCc3cccc(C(F)(F)F)c3)nc3[nH]cnc23)cc1
half-life at 1 μM: 32 min

----------
Molecular target: CYP2C9 (Homo sapiens)
Sequence (P11712 whole entry): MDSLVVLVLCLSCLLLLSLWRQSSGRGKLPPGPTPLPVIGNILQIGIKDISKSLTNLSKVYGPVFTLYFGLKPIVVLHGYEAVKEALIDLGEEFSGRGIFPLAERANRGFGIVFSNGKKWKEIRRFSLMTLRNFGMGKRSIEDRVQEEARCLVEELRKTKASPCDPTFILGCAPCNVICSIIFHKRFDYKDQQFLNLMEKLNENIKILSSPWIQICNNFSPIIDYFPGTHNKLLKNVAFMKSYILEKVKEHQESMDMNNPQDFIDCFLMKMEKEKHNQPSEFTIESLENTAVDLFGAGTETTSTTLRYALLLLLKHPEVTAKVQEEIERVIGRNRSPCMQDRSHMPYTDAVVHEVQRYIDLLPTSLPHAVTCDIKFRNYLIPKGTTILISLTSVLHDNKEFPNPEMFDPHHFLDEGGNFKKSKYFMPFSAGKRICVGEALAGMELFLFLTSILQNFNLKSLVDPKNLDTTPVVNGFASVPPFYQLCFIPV
Assay: CYP450 inhibition in human hepatic microsomes, CYP2C9
Assay type: in vitro ADME
Conditions: liver microsomes, probe tolbutamide (hydroxylation to hydroxytolbutamide)

compound_structure: O=[N+]([O-])c1ccc(CNc2nc(NCc3cccc(C(F)(F)F)c3)nc3[nH]cnc23)cc1
inhibition at 10 μM, %: 92

----------
Biological target: CYP1A2 (Homo sapiens)
Sequence (P05177 whole entry): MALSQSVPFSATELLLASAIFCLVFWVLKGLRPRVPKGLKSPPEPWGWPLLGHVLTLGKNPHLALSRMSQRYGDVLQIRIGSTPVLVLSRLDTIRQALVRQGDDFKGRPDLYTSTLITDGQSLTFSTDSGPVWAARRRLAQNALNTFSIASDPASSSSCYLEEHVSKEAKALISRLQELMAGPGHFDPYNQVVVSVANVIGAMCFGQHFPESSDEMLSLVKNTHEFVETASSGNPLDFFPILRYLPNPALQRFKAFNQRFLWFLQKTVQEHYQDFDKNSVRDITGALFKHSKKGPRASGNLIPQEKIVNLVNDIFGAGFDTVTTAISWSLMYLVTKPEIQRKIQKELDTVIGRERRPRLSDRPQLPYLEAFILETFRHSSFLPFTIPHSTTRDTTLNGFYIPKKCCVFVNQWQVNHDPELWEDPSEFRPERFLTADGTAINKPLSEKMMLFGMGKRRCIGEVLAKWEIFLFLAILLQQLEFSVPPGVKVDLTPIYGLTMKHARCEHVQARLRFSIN
Test: CYP450 inhibition in human hepatic microsomes, CYP1A2
Format: in vitro ADME
Conditions: liver microsomes

compound_structure: O=[N+]([O-])c1ccc(CNc2nc(NCc3cccc(C(F)(F)F)c3)nc3[nH]cnc23)cc1
inhibition at 10 μM (%): 86
